- EXPERIMENTAL_PROTOCOL: Total clearance in iv dosed rat
- Format: ADME, organism-based
- CONDITIONS: in vivo
QUANTITY_KIND: clearance

Exercise: Would you mind telling me what clearance value was observed for CC(C)(Cc1cccc(CC(=O)NCc2cccc(-c3ccc(O)cc3)c2)c1)NC[C@H](O)c1ccc(O)c(NS(C)(=O)=O)c1 [PF-00610355] ?
Solution: 103 mL/min/kg

---

- EXPERIMENTAL_PROTOCOL: Volume of distribution in iv dosed rat
- Assay type: ADME, organism-based
- CONDITIONS: in vivo
QUANTITY_KIND: Vd (L/kg)
One number for each entry, in L/kg.

Exercise: Data request, read-out Vd, for CC(C)(Cc1cccc(CC(=O)NCc2cccc(-c3ccc(O)cc3)c2)c1)NC[C@H](O)c1ccc(O)c(NS(C)(=O)=O)c1 [PF-00610355]
Solution: 31

---

- TARGET_SYSTEM: Beta-2 adrenergic receptor (Homo sapiens, UniProt P07550)
- Sequence (P07550 whole entry): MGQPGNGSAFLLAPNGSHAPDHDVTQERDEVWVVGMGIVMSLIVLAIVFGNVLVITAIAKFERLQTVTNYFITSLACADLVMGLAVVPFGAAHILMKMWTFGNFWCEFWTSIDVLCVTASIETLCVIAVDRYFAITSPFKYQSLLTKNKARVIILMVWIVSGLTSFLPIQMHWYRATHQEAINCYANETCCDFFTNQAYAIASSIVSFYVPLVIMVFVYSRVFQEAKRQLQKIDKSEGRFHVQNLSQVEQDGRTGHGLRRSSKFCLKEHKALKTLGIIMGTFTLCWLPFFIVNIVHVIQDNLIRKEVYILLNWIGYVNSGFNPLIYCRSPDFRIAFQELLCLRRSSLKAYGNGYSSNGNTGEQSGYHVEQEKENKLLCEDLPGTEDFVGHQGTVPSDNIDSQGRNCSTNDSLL
- EXPERIMENTAL_PROTOCOL: Agonist activity at human recombinant beta2 adrenergic receptor expressed in CHO cells assessed as elevation in cAMP level after 1 hr by flashplate method
QUANTITY_KIND: pEC50
Give bare numbers, as −log10 of the molar value.

# count of solved cases: 5
1) CC(C)(Cc1cccc(CC(=O)NCc2cc(Cl)ccc2O)c1)NC[C@H](O)c1ccc(O)c(NS(C)(=O)=O)c1: 9.77
2) Cc1ccc(CNC(=O)Cc2cccc(C[C@@H](C)NC[C@H](O)c3ccc(O)c(NS(C)(=O)=O)c3)c2)cc1C: 10.25
3) CC(C)(Cc1cccc(CC(=O)NCc2ccc(Cl)c(Cl)c2)c1)NC[C@H](O)c1ccc(O)c(NS(C)(=O)=O)c1: 10.18
4) CC(C)(Cc1cccc(CC(=O)NCc2cc(Cl)c(O)c(Cl)c2)c1)NC[C@H](O)c1ccc(O)c(NS(C)(=O)=O)c1: 10.04
5) C[C@H](Cc1cccc(CC(=O)NC23CC4CC(CC(C4)C2)C3)c1)NC[C@H](O)c1ccc(O)c(CO)c1: 10.19

Now consider the entry below.
Exercise: Could you tell me which pEC50 is on file for CC(C)(Cc1cccc(CC(=O)NCc2cc(Cl)cc(Cl)c2O)c1)NC[C@H](O)c1ccc(O)c(NS(C)(=O)=O)c1 ?
Solution: 9.89

Where do the numbers come from? From ChEMBL document CHEMBL1240530.
